Provenance of the data: patent US10227331B2

# measuredTarget: NDM-1 (Klebsiella pneumoniae, UniProt C7C422)
# Sequence (C7C422 whole entry, looked up, species assumed): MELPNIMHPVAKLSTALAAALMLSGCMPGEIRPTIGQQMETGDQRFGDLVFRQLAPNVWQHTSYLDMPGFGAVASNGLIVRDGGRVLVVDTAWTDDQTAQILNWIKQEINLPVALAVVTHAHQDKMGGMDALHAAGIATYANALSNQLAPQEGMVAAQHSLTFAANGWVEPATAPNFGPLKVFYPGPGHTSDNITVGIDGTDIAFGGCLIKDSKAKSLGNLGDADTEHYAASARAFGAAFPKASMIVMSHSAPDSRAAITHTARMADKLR
# testSummary: biochemical
# Assay type: biochemical
# measurementConditions: CCF2-FA substrate, 2 hours at 25° C; read-out: NDM-1 IC50
Please respond with True when measured IC50 is strictly beneath 0.5 nM, and with False in all other cases.

{"columns": ["molecule", "qualitativeLabel"],
 "data": [
  ["NS(=O)(=O)c1c(S(=O)(=O)C2CNC2)ccc(-c2csc(N3CCCC3)n2)c1-c1nnn[nH]1.O=C(O)C(F)(F)F [Example 120, 2,2,2-trifluoroacetate]", "False"],
  ["N#Cc1cccc(-c2ccc(S(=O)(=O)C3CNC3)c(S(N)(=O)=O)c2-c2nn[nH]n2)c1N [Example 196]", "True"],
  ["Cc1ccc(-c2ccc(S(=O)(=O)[C@@H]3CCNC3)c(S(N)(=O)=O)c2-c2nn[nH]n2)c2nc(N)sc12 [Example 187]", "True"],
  ["Nc1nc2c(-c3ccc(S(=O)(=O)CCO)c(S(N)(=O)=O)c3-c3nn[nH]n3)cccc2c[n+]1[O-] [Example 319]", "True"],
  ["CS(=O)(=O)N1CCC(S(=O)(=O)c2ccc(-c3cccc4nc(N)[nH]c34)c(-c3nn[nH]n3)c2S(N)(=O)=O)CC1 [Example 45]", "True"],
  ["Nc1nc2cc(C(F)(F)F)cc(-c3ccc(S(=O)(=O)C4CNC4)c(S(N)(=O)=O)c3-c3nnn[nH]3)c2[nH]1 [Example 260]", "False"],
  ["NS(=O)(=O)c1c(SC2CNC2)ccc(-c2ccc(C3CCNCC3)cc2)c1-c1nn[nH]n1 [Example 4]", "False"],
  ["Cn1c(N)nc2c(-c3ccc(S(=O)(=O)C[C@H](O)CN)c(S(N)(=O)=O)c3-c3nn[nH]n3)cccc21 [Example 362]", "True"],
  ["NC(=O)CN1CC(S(=O)(=O)c2ccc(-c3cccc4[nH]c(N)nc34)c(-c3nn[nH]n3)c2S(N)(=O)=O)C1 [Example 50]", "True"],
  ["CS(=O)(=O)c1ccc([C@H]2CC[C@@H](N)CC2)c(-c2nnn[nH]2)c1S(N)(=O)=O [Example 209]", "False"],
  ["CC(=O)N1CCC(S(=O)(=O)c2ccc(-c3cccc4nc(N)[nH]c34)c(-c3nn[nH]n3)c2S(N)(=O)=O)CC1 [Example 44]", "True"],
  ["NCCS(=O)(=O)c1ccc(-c2cccc(N3CCS(=O)(=O)CC3)c2)c(-c2nnn[nH]2)c1S(N)(=O)=O.O=C(O)C(F)(F)F [Example 158, 2,2,2-trifluoroacetate]", "False"],
  ["Nc1cc2cccc(-c3ccc(S(=O)(=O)C4CNC4)c(S(N)(=O)=O)c3-c3nn[nH]n3)c2cn1 [Example 35]", "True"],
  ["Nc1c(-c2ccc(S(=O)(=O)C3CNC3)c(S(N)(=O)=O)c2-c2nn[nH]n2)cccc1S(N)(=O)=O [Example 287]", "True"],
  ["CCCS(=O)(=O)c1ccc(C2=CCC(N)CC2)c(-c2nnn[nH]2)c1S(N)(=O)=O (stereo not shown) [Example 211]", "False"],
  ["NS(=O)(=O)c1c(S(=O)(=O)C2CNC2)ccc(-c2cccc3[nH]c(C(=O)NCC(=O)O)nc23)c1-c1nn[nH]n1 [Example 257]", "True"],
  ["CC(C)(N)CS(=O)(=O)c1ccc(-c2cccc3sc(N)nc23)c(-c2nn[nH]n2)c1S(N)(=O)=O [Example 94]", "True"],
  ["NCCS(=O)(=O)c1ccc(-c2cccc3sc(C(=O)O)nc23)c(-c2nn[nH]n2)c1S(N)(=O)=O [Example 88]", "True"],
  ["NS(=O)(=O)c1c(S(=O)(=O)C2CCNCC2)ccc([C@H]2CC[C@H](N)CC2)c1-c1nnn[nH]1 [Example 207]", "False"],
  ["NCCS(=O)(=O)c1ccc(-c2cccn3ccnc23)c(-c2nnn[nH]2)c1S(N)(=O)=O [Example 64]", "False"],
  ["NS(=O)(=O)c1c(S(=O)(=O)C2CN(C(=O)NC3CC3)C2)ccc(-c2ccc(NS(=O)(=O)C3CC3)cc2)c1-c1nn[nH]n1 [Example 245]", "True"],
  ["NS(=O)(=O)c1c(S(=O)(=O)[C@H]2CCNC2)ccc(-c2cccc3nc(C(=O)O)[nH]c23)c1-c1nn[nH]n1 [Example 290]", "True"]
]}
